system: A498 renal; assay: NCI tumour cell line growth inhibition, 48 h
Measurement Kind: log10(TGI) (log10 of the value in µM)
Hi team, quick reminder: these entries are log10 of TGI (µM).

Cc1cc(N(CCCl)CCCl)ccc1C=Nc1ccc2ccccc2c1
0.05
COc1cc([N+](=O)[O-])c(OC)cc1-c1nc2sc(Cl)cn2c1/C=N/NC1=NCCN1
0.55
COc1ccc2[nH]c3c(C)c4ccnc(NCCCN(C)CCCNc5ccc6ncn7c8ccccc8c(=O)c5c67)c4c(C)c3c2c1
1.18
CCN(CC)C1CCC(Nc2c(C(C)=O)cnc3ccc(-c4ccc(O)c(Cl)c4)cc23)CC1 (configuration not stated)
0.84
Cc1cccc(-c2cc(=O)c3c(C)cc(C)nc3[nH]2)c1
1.47

Ask | Indicate the recorded log10(TGI) value for this molecule: CN1CCN(c2ccc3nc(-c4ccc5nc(-c6ccc(O)cc6)[nH]c5c4)[nH]c3c2)CC1
Reply | 2.88

Ask | Indicate the recorded log10(TGI) value for this molecule: O=C(NCCNCCCNC(=O)c1cc(-c2ccccc2)nc2ccccc12)c1cccc(OCc2ccccc2)c1OCc1ccccc1
Reply | 0.47

Ask | Indicate the recorded log10(TGI) value for this molecule: COc1ccc(-n2ccnc2-c2cc(OC)c(OC)c(OC)c2)cc1
Reply | 0.71
